Test system: SNB-19 CNS
Test: NCI-60 one-dose screen, 48 h (100 = growth as untreated, 0 = no growth, -100 = all killed)
Conditions: 10 µM unless noted
This is part of a sample that, as a whole, favours compounds with a hit. Of some 83,000 tested, about 20% had one in any assay.
Answer no (0) if growth is under 50%, and yes (1) if it is 50% or more.

>  <Compound>
O=C(NCCCCNC(=O)OCc1ccc2c(Cl)cc(Cl)c(O)c2n1)OCc1ccc2c(Cl)cc(Cl)c(O)c2n1

>  <Class Label>
yes (1)

$$$$
>  <Compound>
CN(C)CCCC1(c2ccc(F)cc2)OCc2cc(-c3cccc4[nH]ccc34)ccc21 (stereo unspecified)

>  <Class Label>
yes (1)

$$$$
>  <Compound>
COc1cccc(CNc2ncnc3c2ncn3C2OC(CO)C(O)C2O)c1O (stereo unspecified)

>  <Class Label>
no (0)

$$$$
>  <Compound>
COc1ccc(/C(C)=C(/c2ccc(OCCCN(C)C)cc2)c2ccc(OC(=O)Cc3ccccc3)cc2)cc1

>  <Class Label>
yes (1)

$$$$
>  <Compound>
CC1=C(CCC(C)N(C)Cc2ccc(OCCCN3CCCC3)cc2)C(C)(C)CCC1 (stereo unspecified)

>  <Class Label>
no (0)

$$$$

Given C=C(C)[C@@H]1CC[C@]2(C(=O)O)CC[C@]3(C)[C@H](CC[C@@H]4[C@@]5(C)C[C@@H](Cc6cn(CCO[C@@H]7O[C@H](COC(C)=O)[C@H](OC(C)=O)[C@H](OC(C)=O)[C@H]7OC(C)=O)nn6)[C@H](O)C(C)(C)[C@@H]5CC[C@]43C)[C@@H]12 , state whether its growth is at least 50%.
yes (1)

Is growth at least 50%? Consider C=CCn1cc(-c2nc3ccccc3s2)c2cc(-c3ccc4c5c(cccc35)C(=O)N(N)C4=O)ccc21
yes (1)

Determine whether this compound has growth no lower than 50%: COc1ccc(N2CCC(=O)NC2=S)cc1
yes (1)

State whether the measured growth reaches 50%, counting equality as reaching it, for O=C(Nc1ncc(Cc2ccc(Cl)c(C(F)(F)F)c2)s1)c1ccc2nnsc2c1
no (0)

Exam item: decide whether the reported growth for O=C(/C=C/c1ccc(Cl)cc1)c1cccc(Nc2nc(Nc3ccccc3)nc(Nc3ccccc3)n2)c1 is at least 50%.
yes (1)

API: above_or_equal(metric=growth, cutoff=50%) for item O=C1/C(=C/c2ccc(-c3ccc(Br)cc3)o2)SC(=S)N1CCc1ccc(O)cc1
yes (1)

Item C#Cc1cccc(Nc2ncnc3ccc(-c4cnc(N)nc4)cc23)c1 with growth of 50% or above?
no (0)

###

Test system: HOP-92 NSCLC
Assay: NCI-60 one-dose screen, 48 h
Conditions: 10 µM unless noted
The panel holds about 83,000 compounds, 20% with a hit somewhere; the sample as a whole holds those more often. Active and inactive are the calls of the source. Rule for the calls: active = growth percent below 10; inactive = the rest.
Just give me one of these, please: active, inactive

Which outcome was entered for the compound COc1ccc2c(O)c(/C=C3\N=Nc4ccccc43)oc2c1C[C@@H]1CCNC[C@H]1F in this test?
inactive

In this assay, the call recorded for COc1ccc(C/C(C)=C(/c2ccc(OCCN3CCCCC3)cc2)c2ccc(OC(=O)NCc3ccccc3)cc2)cc1 was what?
active

Test call for this compound, please: COc1cc(-c2cc(-c3cccs3)c(C#N)c(N3CCOCC3)n2)cc(OC)c1OC
inactive

# lookup: test call for COc1ccc(C(c2cc(OC)c(OC)c(OC)c2)N2CCN(c3ccccc3)CC2)cc1 (stereo not given)
inactive

I'd appreciate the recorded outcome for Cc1ccccc1Cn1cnc2ccc(-c3cc(NC(=O)c4ccc(NC5CCN(C)CC5)cc4)n[nH]3)cc21 from this test.
inactive

###

Tested on: UACC-257 melanoma
Test: NCI-60 one-dose screen, 48 h
Settings: 10 µM unless noted
Compounds without any hit were thinned out: in the full panel of roughly 83,000, 20% have a hit. Activity calls are given as the source filed them. The calls were made as follows: active = growth percent below 10; inactive = the rest.
Would you mind answering with one of these outcomes? active, inactive

# count of solved cases: 8
>  <Compound>
CCOC(=O)c1cn2ncnc(Oc3ccc(NC(=O)NC4CCCCC4)c(Cl)c3)c2c1C

>  <Class Label>
inactive

$$$$
>  <Compound>
OCCNCCCOc1ccc2ncnc(Nc3ccc(Oc4cccc(C(F)(F)F)c4)c(Cl)c3)c2c1

>  <Class Label>
inactive

$$$$
>  <Compound>
Cc1nc(N2CCOCC2)sc1S(N)(=O)=O

>  <Class Label>
inactive

$$$$
>  <Compound>
COC(=O)c1c2c(c(C)[n+]([O-])c1C)C(=O)C=C(NCc1ccc(Br)cc1)C2=O

>  <Class Label>
active

$$$$
>  <Compound>
N#Cc1cccc(NC(=O)c2oc3ccccc3c2-c2cnn(-c3ccccc3)c2)c1

>  <Class Label>
inactive

$$$$
>  <Compound>
COc1ccc(-c2csc(N(C(=O)N3CCN(c4cc5c(cc4F)c(=O)c(C(=O)O)cn5C4CC4)CC3)c3ccccc3)n2)cc1

>  <Class Label>
inactive

$$$$
>  <Compound>
Cc1ccccc1NC(=O)c1sc2nc(C)c(C(=O)/C=C/c3ccccc3)cc2c1N

>  <Class Label>
inactive

$$$$
>  <Compound>
CCCCCCCCCCCCCCCCCCOc1ccccc1CC(=O)NCC[N+]1(C)CCCC1

>  <Class Label>
inactive

$$$$

Name the outcome recorded for CN(C)CCCC1(c2ccc(F)cc2)OCc2cc(-c3cccc4[nH]ccc34)ccc21 (stereo unspecified) in the assay.
active

Hi team, can someone confirm the assay call for C1=C(N2CCCC2)CCC1 ?
inactive

For C=CCc1c(O)c(C(=O)/C=C/c2ccc(Cl)cc2)c(OC)c2ccoc12 , which call appears in the assay record?
inactive

Called result for CC(C)n1cnc2c(=S)nc[nH]c21
inactive

For O=c1c2cc(-c3ccccc3)sc2nc2sc(-c3ccccc3)nn12 , which call appears in the assay record?
inactive

Entry Fc1cc(F)cc(C(c2c[nH]c3ccccc23)c2c[nH]c3ccccc23)c1 : call = ?
inactive

Answer briefly: the call reported for O=C1/C(=C/c2cccs2)SC(=S)N1CCCN1CCOCC1 in this assay.
inactive

Record lookup: outcome of this test for CSc1nnc(-c2cnn3c2NC(c2ccccc2)C3)n1-c1ccc(C(F)(F)F)cc1 (stereo unspecified) ?
inactive

# outcome recorded in this test, key = COc1ccc(-c2ccc3cnc4sc(-c5ccc(OC)cc5)nc4c3n2)cc1
inactive

What outcome does the record of this test show for Fc1cccc(CNc2c3ccccc3nc3ccccc23)c1F ?
inactive

###

Parameter: growth. Scope: all listed entries.
Tested on: A498 renal
Assay: NCI-60 one-dose screen, 48 h (100 = growth as untreated, 0 = no growth, -100 = all killed)
Conditions: 10 µM unless noted
Compounds without any hit were thinned out: in the full panel of roughly 83,000, 20% have a hit.
Record the value in %, omitting the unit from your answer.

Below: 5 compounds and their reported growth.
>  <Compound>
Cc1nnc(-n2c(O)cc(=O)n(-c3ccccc3)c2=S)nc1/C=C/c1ccc(N(C)C)cc1

>  <Unit Descriptor>
%

>  <Reported Value>
52.1

$$$$
>  <Compound>
O=S(=O)(NCCNc1nccc(-c2c(-c3cccc(F)c3)nc3occn23)n1)c1ccc(Br)cc1

>  <Unit Descriptor>
%

>  <Reported Value>
81.3

$$$$
>  <Compound>
C#CCOc1ccc2ncnc(Nc3ccc(NC(=O)CCl)cc3)c2c1

>  <Unit Descriptor>
%

>  <Reported Value>
55.9

$$$$
>  <Compound>
Nc1ncnc2c1N=C(c1ccc3c(c1)OCO3)CC(c1ccc([N+](=O)[O-])cc1)N2 (stereo not given)

>  <Unit Descriptor>
%

>  <Reported Value>
67.3

$$$$
>  <Compound>
Cc1cc2c(O)c(-c3cccc(Cl)c3)c3sc(=O)oc3c2cc1C

>  <Unit Descriptor>
%

>  <Reported Value>
9.01

$$$$

Attention now shifts to the item below.
Entry C#Cc1ccc(NC(=O)c2ccc(/C=C/C(=O)c3nccn3C)cc2)cc1 has what growth?
-70.3

###

Tested on: UACC-62 melanoma
Assay: NCI-60 one-dose screen, 48 h (100 = growth as untreated, 0 = no growth, -100 = all killed)
Conditions: 10 µM unless noted
Compounds without any hit were thinned out: in the full panel of roughly 83,000, 20% have a hit.
Experimental Endpoint: growth (%)
Number in %, nothing else.

Worked cases, answers included:
>  <Molecule>
COc1ccc2nc(NC(=O)CSc3nnc4n3S(=O)(=O)c3ccccc3N4C)sc2c1

>  <Measurement Target>
UACC-62 melanoma

>  <Reported Value>
87.3

$$$$
>  <Molecule>
O=C(CCCCC1CCSS1)Nc1ncnc2n[nH]c(-c3ccc(Oc4ccccc4)cc3)c12 (stereo not given)

>  <Measurement Target>
UACC-62 melanoma

>  <Reported Value>
70.4

$$$$

// lookup growth for CC(=O)OCc1nc(C#N)c(N(C)C)o1
89.3

Give its growth value. Item: O=C(c1ccc(-c2ccccc2)cc1)c1ccc([N+](=O)[O-])cc1
92.7

// returns reported growth for input CC1(C)CC2=C3C=C[C@@H]4[C@@]5(C)CCC(=O)C(C)(C)[C@@H]5CC[C@@]4(C)[C@]3(C)CC[C@@]2(C(=O)O)CC1=O
64

Fill blank: measured growth of the molecule COc1ccc(-c2cc(-c3ccc(Cl)cc3)c(C#N)c(=O)n2CCCCC(=O)Nc2ccccc2N)cc1 is ____.
23.7

Which growth is reported for this molecule? O=C(N/N=C/c1ccc(F)cc1)c1ccc(C(F)(F)F)nc1Nc1cccc(C(F)(F)F)c1
-6.64

So what's the measured growth for this one? CCCCCCNC(=O)Oc1ccc(/C(=C(/C)Cc2ccc(OC)cc2)c2ccc(OCCCN(C)C)cc2)cc1
-25.1
